Biological target: Cytochrome P450 2C9 (Homo sapiens)
Assay: qHTS Assay for Inhibitors and Substrates of Cytochrome P450 2C9 (AID 883); also: nearly all actives have a fitted effect of over 60% in size
Settings: recombinant CYP2C9, luciferin-H luminescence, 60 min; series mostly up to 57.1 µM
Records with an inconclusive call do not appear. Activity calls are given as the source filed them. Calls follow the shape of the dose curve; as a rule, active = well fitted inhibition curve with a large enough effect; inconclusive = small, poorly fitted or top-dose-only effect; inactive = no such curve, though single readings can be large or run the other way.
Give one outcome, nothing more. List: true for active, false for inactive

For orientation, consider the following solved cases.
1. COc1ncc2nc(-c3cn(C)c4ccccc34)c(=O)n(-c3ccccc3)c2n1	false
2. C[C@@]12CC[C@@H]3c4ccc(O)cc4CC[C@H]3[C@H]1CC[C@H]2O	false

Q: Please let me know the test result on file for N#Cc1cccc(-c2nc3cnc(N4CCOCC4)nc3n(Cc3ccc(F)cc3)c2=O)c1 .
A: false

Q: Please let me know the test result on file for O=C(c1cccc(F)c1)N1CCC2(CCCN(Cc3ccncc3)C2)CC1 .
A: true

Q: Please let me know the test result on file for c1cncc(-c2nccc(NCc3cccs3)n2)c1 .
A: true

###

Target: Glucocorticoid receptor (Homo sapiens)
Assay: GR-GFP Redistribution (AID 450); also: potency is read from the fitted curve at half-maximal effect
Conditions: U2OS GR-GFP nuclear translocation, laser cytometry, 2 h
Active and inactive are the calls of the source.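 How the source made its calls: active means compounds whose dose series gives a full or clear partial fitted curve of increased nuclear translocation; inconclusive means weak partial curve or effect only at the top dose; inactive means no dose-dependent translocation response.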
readoutLabel: Potency

Q: # input compound: Cc1cnc(CNc2ncncc2-c2ccccc2CN(C)C)cn1 ; wanted: its Potency
A: > 46 µM (inactive)

Q: # input compound: COCCn1c(=O)c(-c2ccc(OC)cc2)nc2cnc(Oc3ccc(OC)cc3)nc21 ; wanted: its Potency
A: > 9.22 µM (inactive)

Q: # input compound: COc1cccc(-c2cc(NCc3cccc(C)c3)ncn2)c1 ; wanted: its Potency
A: > 46 µM (inactive)

Q: # input compound: COc1ccc(CNc2ncnc3ccc(-c4ccoc4)cc23)c(OC)c1 ; wanted: its Potency
A: > 46 µM (inactive)

Q: # input compound: Cc1ccccc1-c1nc(N(C)C)c2ccccc2n1 ; wanted: its Potency
A: > 46 µM (inactive)

Q: # input compound: O=c1c(-c2ccc(F)c(F)c2)nc2cncnc2n1Cc1ccccc1 ; wanted: its Potency
A: > 9.22 µM (inactive)

###

Tested on: CP297
Assay: qHTS profiling for inhibitors of Plasmodium falciparum proliferation (AID 504749); also: nearly all actives have a fitted effect of over 60% in size
Settings: P. falciparum in erythrocytes, SYBR Green DNA, 72 h; series mostly up to 12.8 µM
Inconclusive results are not listed. Calls of active or inactive are those of the source. The call rests on the fitted dose curve; in most records, active means well fitted inhibition curve with a large enough effect; inconclusive means small, poorly fitted or top-dose-only effect; inactive means flat fitted curve, though single readings scatter.
Give one outcome, nothing more. List: active, inactive

For orientation, consider the following solved cases.
1. C[C@@H](C(=O)O)c1ccc(C(=O)c2cccs2)cc1	inactive
2. Cc1cc(/C=C\c2ccc3cc(N(C)C)ccc3[n+]2C)c(C)n1-c1ccccc1	active
3. CC(=O)N(CC(O)CN(C(C)=O)c1c(I)c(C(=O)NC[C@@H](O)CO)c(I)c(C(=O)NC[C@@H](O)CO)c1I)c1c(I)c(C(=O)NC[C@@H](O)CO)c(I)c(C(=O)NC[C@@H](O)CO)c1I	inactive
4. C[N+]1(C)CCC[C@@H](OC(=O)C(O)(c2ccccc2)c2ccccc2)C1	inactive
5. N[C@@H](CO)C(=O)NNCc1ccc(O)c(O)c1O	inactive
6. C/C=C\C(=O)N(CC)c1ccccc1C	inactive
7. COCCc1ccc(OC[C@H](O)CNC(C)C)cc1	inactive
8. NS(=O)(=O)c1cc([C@@]2(O)NC(=O)c3ccccc32)ccc1Cl	inactive

Here is the next item to consider.
Q: Please let me know the test result on file for CC1(C)O[C@@H]2C[C@H]3[C@H]4C[C@H](F)C5=CC(=O)C=C[C@@]5(C)[C@@H]4[C@H](O)C[C@]3(C)[C@]2(C(=O)CO)O1 .
A: inactive

###

Assay: Stat Signaling Pathway (AID 446);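 also: ME-180 cervical cancer cells given 40 pM IL-6 alongside compound; SIE-controlled beta-lactamase reporter measured as 460/530 nm FRET emission ratio; % is scaled to controls: 0 for no effect and ±100 for the full control effect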
Details: ME-180 SIE beta-lactamase reporter, IL-6 stimulated, 5 h; at 38 µM (top of the series)
Results filed as inconclusive are left out.
Listed here: items and their measured activity, negative = inhibition.
Give just the numeric value; % need not be written.

// solved cases for activity, negative = inhibition follow
1) CN1[C@@H](CC(=O)c2ccccc2)CCC[C@@H]1C[C@@H](O)c1ccccc1	-8.54
2) CC1=C(C(=O)O)N2C(=O)[C@@H](NC(=O)[C@@H](N)c3ccccc3)[C@@H]2SC1	30.7
3) C[C@@]12CCC(=O)C=C1CC[C@@H]1[C@@H]2[C@H](O)C[C@]2(C)[C@@H]1CC[C@]2(O)C(=O)CO	-22.1
4) C[C@@H]1c2cccc(O)c2C(O)=C2C(=O)[C@@]3(O)C(O)=C(C(N)=O)C(=O)[C@@H](N(C)C)[C@@H]3[C@@H](O)[C@@H]21	12.5

Q: # input molecule: CN1CCc2cccc3c2[C@@H]1Cc1ccc(O)c(O)c1-3 ; wanted: its activity, negative = inhibition
A: -10.2

Q: # input molecule: C[C@]12CCC3c4ccc(O)cc4CCC3[C@@H]1CCC2=O (some centres undefined) ; wanted: its activity, negative = inhibition
A: -20.6

Q: # input molecule: CO/N=C(\C(=O)N[C@@H]1C(=O)N2C(C(=O)O)=C(COC(C)=O)CS[C@@H]12)c1csc(N)n1 ; wanted: its activity, negative = inhibition
A: -20.5

Q: # input molecule: CN1C(=O)CC[C@@H]1c1cccnc1 ; wanted: its activity, negative = inhibition
A: 17.2

Q: # input molecule: CCCCCN(CCCCC)C(=O)[C@H](CCC(=O)O)NC(=O)c1ccc(Cl)c(Cl)c1 ; wanted: its activity, negative = inhibition
A: -25.5

###

Experiment: qHTS Assay for Identification of Small Molecule Agonists for Hypoxia Response Element Signaling Pathway (AID 914); also: % of control where 0% means no effect
Settings: ME-180 HRE-bla reporter, beta-lactamase ratio, CoCl2, 17 h; hits give high values
Inconclusive results are not listed.
readoutLabel: activation (%)
Give just the numeric value; % need not be written.

// solved cases for activation follow
1) O=C(c1cccc(F)c1)N1CCC2(CCCN(c3ccccc3)C2)CC1	-3.27
2) O=c1c(CCc2ccccc2)nc2cncnc2n1C1CC1	6.89
3) Cc1cccc(CNc2cc(-c3ccccc3C)ncn2)c1	16.7
4) O=S(=O)(c1ccccc1)N1CCC2(CCCN(c3ccccn3)C2)CC1	-11.6
5) COc1ccccc1CNc1ccnc(-c2ccccc2C(F)(F)F)n1	-5.47
6) COc1ccccc1-c1nc(NCCNC(C)=O)c2ccccc2n1	-0.258
7) CC(=O)NCCNc1nc(-c2ccccc2C)nc2ccccc12	-1
8) CC(C)CN1CCCC2(CCN(C(=O)c3cc(C(F)(F)F)cc(C(F)(F)F)c3)CC2)C1	-20.4

Q: # input compound: O=C(c1cnccn1)N1CCC2(CCN(Cc3ccncc3)CC2)CC1 ; wanted: its activation
A: 2.3

Q: # input compound: COc1cccc(Cn2c(=O)c(CCc3ccccc3)nc3cnc(N4CCNCC4)nc32)c1 ; wanted: its activation
A: 8.93

Q: # input compound: O=C(c1cnccn1)N1CCC2(CC1)CN(Cc1ccccc1)C2 ; wanted: its activation
A: 6.71

###

Listed here: items and their measured activity change, negative = inhibition.
Assay: AP1 Signaling Pathway (AID 357);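 also: ME-180 reporter cells stimulated with EGF at its EC50 level; % is scaled to controls: 0 for no effect and ±100 for the full control effect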
Conditions: ME-180 (cervical carcinoma) AP-1-bla reporter, EGF-induced, beta-lactamase ratio, 5 h; at 7.69 µM (top of the series) unless noted
Records with an inconclusive call do not appear.
Give just the numeric value; % need not be written.

1) CN(Cc1ccco1)c1ncncc1-c1cccc(NS(C)(=O)=O)c1	-8.59

Q: # input compound: COc1ccccc1CNc1nc(-c2ccc(N(C)C)cc2)nc2ccccc12 ; wanted: its activity change, negative = inhibition
A: 1.38

Q: # input compound: COc1ccc(Oc2ncc3nc(-c4cccs4)c(=O)n(-c4ccccc4)c3n2)cc1 ; wanted: its activity change, negative = inhibition
A: 21.1

Q: # input compound: c1cncc(-c2ccc3ncnc(NCCN4CCOCC4)c3c2)c1 ; wanted: its activity change, negative = inhibition
A: -1.94

Q: # input compound: COCCn1c(=O)c(C)nc2cnc(Oc3cccc(Cl)c3)nc21 ; wanted: its activity change, negative = inhibition
A: -12

Q: # input compound: O=C(c1ccco1)N1CCC2(CCN(Cc3ccccc3)CC2)CC1 ; wanted: its activity change, negative = inhibition
A: -4.92

Q: # input compound: CC(=O)N1CCC2(CCCN(C(=O)Nc3cccc(C#N)c3)C2)CC1 ; wanted: its activity change, negative = inhibition
A: -1.46

###

Test system: ECU
Test: qHTS profiling for inhibitors of Plasmodium falciparum proliferation (AID 504749); also: nearly all actives have a fitted effect of over 60% in size
Details: P. falciparum in erythrocytes, SYBR Green DNA, 72 h; series mostly up to 12.8 µM
Experimental: NIH National Institute of Allergy and Infectious Diseases [NIAID] NIH Chemical Genomics Center [NCGC] […] Because mature erythrocytes lack DNA, only Plasmodium-derived DNA is detected. NCGC Assay Protocol Summary: The SYBR Green viability assay was adapted from a method described previously (Plouffe et al., 2008). […] The following morning, fluorescence intensity at 485(14) nm excitation and 535(25) nm emission wavelengths was measured on an EnVision (Perkin Elmer) plate reader. […]
Inconclusive results are not listed. Calls of active or inactive are those of the source. The call rests on the fitted dose curve; in most records, active means well fitted inhibition curve with a large enough effect; inconclusive means small, poorly fitted or top-dose-only effect; inactive means flat fitted curve, though single readings scatter.
Give one outcome, nothing more. List: active, inactive

For orientation, consider the following solved cases.
1. CCCN(CCC)C(=O)[C@@H](CCC(=O)O)NC(=O)c1ccccc1	inactive
2. CN1[C@@H]2CC[C@H]1CC(OC(=O)[C@@H](O)c1ccccc1)C2 (stereo partly specified)	inactive

Q: Please let me know the test result on file for CCN(CC)CC#CCOC(=O)[C@@](O)(c1ccccc1)C1CCCCC1 .
A: active

Q: Please let me know the test result on file for O=C(Cc1cccs1)NC1C(=O)N2C(C(=O)[O-])=C(C[n+]3ccccc3)CSC12 (stereo unspecified) .
A: inactive

Q: Please let me know the test result on file for NS(=O)(=O)c1cc([C@@]2(O)NC(=O)c3ccccc32)ccc1Cl .
A: inactive

Q: Please let me know the test result on file for CCN1C(=O)N[C@@H](c2ccccc2)C1=O .
A: inactive
